PROPERTY NAME: melting point

- COc1ccc2c(N3CCN(C(=S)NCc4ccccc4)CC3)ncnc2c1OC: 158 to 160 °C
- CCOC(=O)c1ccc(NC(=O)N2CCN(c3ncnc4cc(OC)c(OC)cc34)CC2)cc1: 242 to 246 °C
- COc1cc2ncnc(N3CCN(C(=O)N[C@H](C)c4ccccc4)CC3)c2cc1OC: 189 to 190 °C
- CCOc1cc2c(N3CCN(C(=S)NCc4ccccc4)CC3)ncnc2cc1OC: 170 to 171 °C
- COc1cc2ncnc(N3CCN(C(=O)NC(=O)c4ccccc4)CC3)c2cc1OC: 122 to 124 °C

Briefly, melting point measured for "COc1cc2ncnc(N3CCN(C(=S)Nc4ccc5c(c4)OCCO5)CC3)c2cc1OC" : 165 to 166 °C

Lab note: measured melting point of "COc1ccc2ncnc(N3CCN(C(=S)NCc4cccnc4)CC3)c2c1" was 139 to 140 °C

For "COc1ccc(CCNC(=S)N2CCN(c3ncnc4cc(OC)c(OC)cc34)CC2)cc1OC" the molecule record lists melting point as 98 to 100 °C
